The compounds listed here are annotated with their CC50 at 48 h.
protocolNotes: Cytotoxicity against human HG23 cells after 48 hrs
Type: cell-based
assayContext: read-out: TD50

smilesEntry: O=C(c1cccc(Oc2ccccc2)c1)N1CCN(Cc2cccc(Oc3ccccc3)c2)CC1
CC50 at 48 h (µM): 15.6

smilesEntry: O=C(c1cccc(Oc2ccccc2)c1)N1CCN(Cc2ccccc2)CC1
CC50 at 48 h (µM): 11.4

smilesEntry: c1ccc(Oc2cccc(CN3CCN(Cc4cccc(Oc5ccccc5)c4)CC3)c2)cc1
CC50 at 48 h (µM): 75.4

smilesEntry: N#Cc1ccc(S(=O)(=O)N2CCN(Cc3cccc(Oc4ccccc4)c3)CC2)cc1
CC50 at 48 h (µM): 119

smilesEntry: O=C(c1ccc(Oc2ccccc2)cc1)N1CCN(Cc2cccc(Oc3ccccc3)c2)CC1
CC50 at 48 h (µM): 23.5

smilesEntry: CCCOc1ccc(C(=O)N2CCN(Cc3ccccc3)CC2)cc1
CC50 at 48 h (µM): 95.3

smilesEntry: CC(C)Oc1ccc(CN2CCN(Cc3cccc(Oc4ccccc4)c3)CC2)cc1
CC50 at 48 h (µM): 31.5

###

protocolNotes: Cytotoxicity against human HG23 cells after 48 hrs
Assay type: cell-based
assayContext: read-out: TD50
The molecules listed here are annotated with their CC50 at 48 h.

molecule: O=C(c1ccccc1Oc1ccccc1)N1CCN(Cc2ccccc2)CC1
CC50 at 48 h (µM): 18.5
//
molecule: COc1ccc(C(=O)N2CCN(Cc3cccc(Oc4ccccc4)c3)CC2)cc1
CC50 at 48 h (µM): 25.4
//
molecule: CCCCS(=O)(=O)N1CCN(Cc2cccc(Oc3ccccc3)c2)CC1
CC50 at 48 h (µM): 121
//
molecule: COc1ccc(CN2CC(C(=O)N3CCN(Cc4ccccc4)CC3)CC2=O)cc1 (stereo not given)
CC50 at 48 h (µM): 155
//
molecule: COc1ccc(Cn2cc(C(=O)N3CCN(Cc4ccccc4)CC3)nn2)cc1
CC50 at 48 h (µM): 62.5
